This document collects Ki values reported for Cannabinoid receptor 1 (Rattus norvegicus, UniProt P20272).
Give just the number in nM; leave the unit off.

Some compounds with recorded Ki:
compound | measurement name | recorded value
CCCCCc1cc(O)c2c(c1)OC(C)(C)c1ccc(C)cc1-2 | Ki | 308
CCCCCCCn1ccc(C(=O)c2cccc3ccccc23)c1 | Ki | 309
CCCCn1cc(C(=O)c2cccc3ccccc23)c2ccccc21 | Ki | 8.9

Tell me the measured Ki of CCCCC/C=C/C/C=C/C/C=C/C/C=C/CCC(C)C(=O)NCCO (configuration not stated) , please.
53

How about this compound: CCCCC/C=C/C/C=C/C/C=C/C/C=C/CCC(C)C(=O)NCCF (configuration not stated)
5.7

How about this compound: CCCCCCC(C)(C)c1cc(O)c2c(c1)OC(C)(C)[C@@H]1CC=C(CO)CC21 (some centres not stated)
0.73

How about this compound: CCCCCn1ccc(C(=O)c2cccc3ccccc23)c1
87

How about this compound: CCCCC/C=C/C/C=C/C/C=C/C/C=C/CCC(C)(C)C(=O)NCCO [2-dimethyl-anandamide]
47

How about this compound: CCCCCCn1ccc(C(=O)c2cccc3ccccc23)c1
399
